A collection of binders and their measured OD at 490 nm
- System Tested: T1, Full length recombinant HBcAg (rHBcAg) encompassing residues 1-183 (hepatitis B virus, UniProt P03146 1-183)
- T1 construct: range 1-183; also called hepatitis B virus core antigen
- T1 sequence (P03146 whole entry, the tested form may be a part): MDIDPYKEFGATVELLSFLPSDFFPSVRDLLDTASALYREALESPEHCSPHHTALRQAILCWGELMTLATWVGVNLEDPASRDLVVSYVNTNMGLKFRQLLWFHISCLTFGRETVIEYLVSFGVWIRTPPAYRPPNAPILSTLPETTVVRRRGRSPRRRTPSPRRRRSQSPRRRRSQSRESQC
- Test Summary: EIA, support-bound peptide, HBcAg 5 ug/ml
Field: numeric (OD). Do not append units.

Look over these answered cases.
[
  {
    "Binder": "SYSYMHWY [SYSYMHWY (printed with SEQ. ID. No. 63, a number already used for …)]",
    "OD at 490 nm (OD)": 0.283
  },
  {
    "Binder": "SVKLSCKASGYIFTS [SVKLSCKASGYIFTS (SEQ. ID. No. 43)]",
    "OD at 490 nm (OD)": 3.36
  }
]

What value of OD at 490 nm has been recorded for this entry: LSCKASGYIFTS [LSCKASGYIFTS (SEQ. ID. No. 46)]
0.565

What value of OD at 490 nm has been recorded for this entry: CKASGYIFTS [CKASGYIFTS (SEQ. ID. No. 48)]
0.255

What value of OD at 490 nm has been recorded for this entry: TSSYSYMHWY [TSSYSYMHWY (SEQ. ID. No. 62)]
0.317
